- systemUnderTest: T1, human PD-L1 (full-length, expressed on CHO cells) (human, UniProt Q9NZQ7 19-290)
- T1 construct: also called huPD-L1; CD274
- T1 sequence (Q9NZQ7 19-290): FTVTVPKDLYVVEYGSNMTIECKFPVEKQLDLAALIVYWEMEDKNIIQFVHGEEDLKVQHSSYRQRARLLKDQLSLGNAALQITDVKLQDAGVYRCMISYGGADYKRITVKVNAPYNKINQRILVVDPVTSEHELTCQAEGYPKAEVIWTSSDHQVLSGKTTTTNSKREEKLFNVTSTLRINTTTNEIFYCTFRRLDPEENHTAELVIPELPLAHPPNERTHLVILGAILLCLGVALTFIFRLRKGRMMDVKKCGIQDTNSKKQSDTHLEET
- assayInfo: flow cytometry, CHO cells expressing huPD-L1, PE anti-human Fc
MFI at 33.3 nM overview
Provide the reading as a plain figure in MFI.

Example binders with recorded MFI at 33.3 nM:
binder: variant CD80 IgV-Fc Q33L/E35D/T41S/M43I (Fc fusion, not shown: a dimerising Fc or GST) VIHVTKEVKEVATLSCGHNVSVEELAQTRIYWLKDKKMVLSMISGDMNIWPEYKNRTIFDITNNLSIVILALRPSDEGTYECVVLKYEKDAFKREHLAEVTLSVKAD
unitsLabel: MFI
MFI at 33.3 nM: 44900
--
binder: variant CD80 IgV-Fc H18Y/A26E/Q33L/E35D/M47L/L85Q (Fc fusion, not shown: a dimerising Fc or GST) VIHVTKEVKEVATLSCGYNVSVEELEQTRIYWLKDKKMVLTMMSGDLNIWPEYKNRTIFDITNNLSIVILALRPSDEGTYECVVQKYEKDAFKREHLAEVTLSVKAD
unitsLabel: MFI
MFI at 33.3 nM: 76600
--
binder: variant CD80 IgV-Fc A26E/Q33R/E35D/M47L/L85Q/K86E (Fc fusion, not shown: a dimerising Fc or GST, Fc fusions are described in general as dimers) VIHVTKEVKEVATLSCGHNVSVEELEQTRIYWRKDKKMVLTMMSGDLNIWPEYKNRTIFDITNNLSIVILALRPSDEGTYECVVQEYEKDAFKREHLAEVTLSVKAD
unitsLabel: MFI
MFI at 33.3 nM: 76000

Please turn your attention to the following entry.
Data request: Please look at this binder and report its MFI at 33.3 nM: variant CD80 IgV-Fc Q27H/Q33L/E35D/M47V/N55D/L85Q/K89N (Fc fusion, not shown: a dimerising Fc or GST) VIHVTKEVKEVATLSCGHNVSVEELAHTRIYWLKDKKMVLTMMSGDVNIWPEYKDRTIFDITNNLSIVILALRPSDEGTYECVVQKYENDAFKREHLAEVTLSVKAD
Data returned: 14800

Taken from patent US20210130436A1.
